Literature compilation of pIC50 measurements on Adenosine receptor A2b (Homo sapiens, UniProt P29275).
Conceptually, pIC50 converts a concentration in mol/L into minus its log10.

-- ask Given the entry COc1cccc2c1nc(N)n1nc(C3CC3c3ccccc3[C@@H](C)O)nc21 (stereo partly drawn) , report its measured pIC50.
-- reply 6.55

-- ask Next up: COc1cc(F)cc2c1nc(N)n1nc([C@@H]3CCCN(c4ccc(OC(C)C)nc4)C3)nc21
-- reply 7.91

-- ask Next up: Cc1c(-c2ncco2)nc(N)n2nc(Cc3ccc([C@H]4C[C@@](C)(O)C4)cc3)nc12
-- reply 8.80

-- ask Next up: COc1cc2nc(N)n3nc(C4CCC(C)N(c5cnn(C(C)(C)CO)c5)C4)nc3c2cc1F (single isomer, unassigned)
-- reply 5.94

-- ask Next up: CCn1cc(C2CC2c2nc3c4cccc(OC)c4nc(N)n3n2)cn1 (stereo not drawn)
-- reply 7.25

-- ask Next up: COc1cc2nc(N)n3nc(C4CCC(C)N(c5cnn(C6CCOCC6)c5C)C4)nc3c2cc1F (single isomer, unassigned)
-- reply 6.82

-- ask Next up: COc1cccc2c1nc(N)n1nc(C3CC3c3cnc(NCCO)nc3)nc21 (stereo not drawn)
-- reply 6.88

-- ask Next up: COc1cc2nc(N)n3nc([C@@H]4CCCN(c5cnn(CCCC(C)=O)c5)C4)nc3c2cc1F
-- reply 6.50

-- ask Next up: COc1cccc2c1nc(N)n1nc([C@H]3C[C@H](c4ncc(C(C)(C)N)nc4C)C3)nc21
-- reply 7.95

-- ask Next up: COc1cccc2c1nc(N)n1nc(C3CC3c3cncc(C(C)(C)O)c3)nc21 (stereo not drawn)
-- reply 7.81

-- ask Next up: Nc1nc(-c2cc(F)ccc2F)c(C2CC2)n2nc(Cc3ccccc3)nc12
-- reply 6.93

-- ask Next up: COc1cc2nc(N)n3nc(C4CCC(C)N(c5cn(C6CCOCC6)nc5C)C4)nc3c2cc1F (single isomer, unassigned)
-- reply 7.06

-- ask Next up: Cc1c(-c2ncco2)nc(N)n2nc(CCN3CCn4c(cnc4C45CC(C4)C5)C3)nc12
-- reply 7.75

-- ask Next up: COc1cccc2c1nc(N)n1nc([C@H]3C[C@@](N)(c4ccc(C(C)(C)O)cn4)C3)nc21
-- reply 7.90

-- ask Next up: COc1cc2nc(N)n3nc([C@@H]4CCCN(c5cnn([C@H]6C[C@@](C)(O)C6)c5)C4)nc3c2cc1F
-- reply 6.65

###

Literature compilation of IC50 measurements on Adenosine receptor A2b (Homo sapiens, UniProt P29275).
// returns No unless IC50 is strictly below 60 nM, in which case Yes

-- ask Does the reported IC50 of COc1cc(F)cc2c1nc(N)n1nc(C3CC(c4ccc(C(C)(C)N)cn4)C3)nc21 (centres unmarked) stay below 60 nM?
-- reply Yes

-- ask Next up: COc1cc(F)cc2c1nc(N)n1nc([C@@H]3CCCN(c4nc(C)n(CC(C)(C)O)n4)C3)nc21
-- reply No

-- ask Next up: Cc1ccc(-c2nc(NC(=O)C3CC3)cn3nc(C(F)(F)F)nc23)o1
-- reply Yes

-- ask Next up: COc1cccc2c1nc(N)n1nc(C3CC3Cc3ccc(F)cc3)nc21 (centres unmarked)
-- reply Yes

-- ask Next up: Cc1ccc(-c2nc(NC(=O)C3CC3)cn3nc(N)nc23)o1
-- reply Yes

-- ask Next up: COc1cc2nc(N)n3nc([C@@H]4CCN(c5cnn(CC6(O)CCC6)c5)C4)nc3c2cc1F
-- reply No

-- ask Next up: Cc1c(-c2ncco2)nc(N)c2nc(Cc3ccc(C(C)(C)O)cc3)nn12
-- reply Yes

-- ask Next up: COc1ccc(Cc2nc3cc(NC(=O)C4CC4)nc(-c4ccc(C)o4)n3n2)cc1
-- reply Yes

-- ask Next up: Cc1c(-c2ncco2)nc(N)n2nc(CN3CCc4cccnc43)nc12
-- reply Yes

-- ask Next up: Cc1c(-c2ncco2)nc(N)n2nc(Cc3cccc(C(C)(C)O)c3)nc12
-- reply No

-- ask Next up: Cc1nc2cc(NC(=O)C3CC3)nc(-c3ccc(S(C)(=O)=O)cc3)n2n1
-- reply No

-- ask Next up: Cc1c(-c2ncco2)nc(N)n2nc(CCN3Cc4cn(CC(C)(C)O)nc4C3)nc12
-- reply No

-- ask Next up: COc1cc2nc(N)n3nc([C@@H]4CCCN(c5cnn(CCCC(C)O)c5)C4)nc3c2cc1F (single isomer, unassigned)
-- reply No

-- ask Next up: COc1cc2nc(N)n3nc([C@@H]4CCCN(c5cnn(CC6(O)CCC6)c5)C4)nc3c2cc1F
-- reply No
